B1: TPR t1 (parent)
chain: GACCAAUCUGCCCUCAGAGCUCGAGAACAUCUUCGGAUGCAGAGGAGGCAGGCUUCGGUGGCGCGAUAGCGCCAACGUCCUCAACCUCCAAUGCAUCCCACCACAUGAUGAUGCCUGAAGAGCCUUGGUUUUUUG

- Variants of: B1
- protocol.notes: polymerase ribozyme fitness, log enrichment relative to wild type (log ratio); higher = more active; in vitro selection for triplet polymerase activity
metric.name: polymerase ribozyme fitness (log ratio)
A bare number is all that is needed in reply.

Can you share its polymerase ribozyme fitness (log ratio)? I mean this variant: GACCAAUCUUCCCUCAGAGCUCGAGAACAUCUUCGGAUGCAGAGGAGGCAGGCUUCGGUGGCGCGAUAGCCCCAACGUCCUCAACCUCCAAUGCAUCCCACCACAUGAUGAUGCCUGAAGAGCCUUGGUUUUUUU -3.12

Which polymerase ribozyme fitness (log ratio) is listed for GACCAAUCUGCCCUCAGAGCUCGAGAACAUCUUCGGAUGCAGAGGAGGCAGGCUUCGGUGGCGCGAUAGCGACAACGUCCUGAACCUCCAAUGCAUCCCACCACAUGAUGAUGCCUGAAGAGCCUUGGUUUUUUG ? -0.603

Look up polymerase ribozyme fitness (log ratio): GACCAAUCUGCCCUCAGAGCUUGAGAACAUCUUCGGAUGCGGAGGAGGCAGGCUUCGGUGGCGCGAUAGCGUCAACGUCCUCAACCUCCAAUGCAUCCCACCACAUGAUGAUGCCUGAAGAGCUUUGGUUUUUUG -3.44

Which polymerase ribozyme fitness (log ratio) is reported for this variant? GACCAAUCUGCCCUCAGAGCUCGAGAACAUCUUCGGAUGGAGAGGAGGCAGGCUUCGGUGGCGCGAUAUCGCCAACGUCCUCAACCUCCAAAAGAUCCCACCACAUGAUGAUGCCUGAGGAGCCUUGGUUUUUUG -0.914
